System: Tau phosphorylation at Ser396 (pSer396), SH-SY5Y cells
Run description: Tau phosphorylation at Ser396 (pSer396) in SH-SY5Y cells, ELISA/western blot
Type: cell-based, human
Study conditions: Homo sapiens; SH-SY5Y cells, overnight (16-18 h); read-out: pSer396 Tau EC50
Quantity name: EC50 (nM)
Give the value in nM but do not write nM after it.

*Q* Name the reported EC50 value associated with the molecule Cc1nnc(-c2ccc3cnc(NC(=O)N4CCn5ccnc5C4)cc3c2)s1
*A* 114

*Q* Name the reported EC50 value associated with the molecule [2H]C([2H])(C(=O)Nc1cc2cc(-c3cnc(C)n3C)ccc2cn1)c1ccc(F)cc1
*A* 769

*Q* Name the reported EC50 value associated with the molecule [2H]c1c(NC(=O)C2CCN(CC(C)C)CC2)ncc2ccc(-c3cnn(C)c3)cc12
*A* 103

*Q* Name the reported EC50 value associated with the molecule [2H]C([2H])([2H])Oc1ccc(C(=O)Nc2cc3cc(-c4cncn4C)ccc3cn2)cc1
*A* 896

*Q* Name the reported EC50 value associated with the molecule CN1CCN(C(=O)[C@H]2CC[C@H](C(=O)Nc3cc4cc(-c5cnn(C)c5)cc(F)c4cn3)CC2)CC1
*A* 2600

*Q* Name the reported EC50 value associated with the molecule Cn1cc(-c2ccc3cnc(NC(=O)[C@H]4CC[C@H](N5CCCC5)CC4)cc3c2)nn1
*A* 208

*Q* Name the reported EC50 value associated with the molecule Cc1ncc(-c2ccc3cnc(NC(=O)N4CCC(N5CCOCC5)CC4)cc3c2)o1
*A* 779

*Q* Name the reported EC50 value associated with the molecule Cc1ncc(-c2ccc3cnc(NC(=O)[C@H]4CC[C@H](CN5CCN(C)CC5)CC4)cc3c2)o1
*A* 307

*Q* Name the reported EC50 value associated with the molecule Cc1nnc(-c2ccc3cnc(NC(=O)C4CCNCC4)cc3c2)s1
*A* 127

*Q* Name the reported EC50 value associated with the molecule Cc1ncc(-c2cc(F)c3cnc(NC(=O)[C@H]4CC[C@H](N(C)C)CC4)cc3c2)o1
*A* 743

*Q* Name the reported EC50 value associated with the molecule [2H]c1c([2H])c(C(=O)Nc2cc3cc(-c4cncn4C)ccc3cn2)c([2H])c([2H])c1C
*A* 1400

###

Test system: Tau phosphorylation at Ser396 (pSer396), SH-SY5Y cells
Run description: Tau phosphorylation at Ser396 (pSer396) in SH-SY5Y cells, ELISA/western blot;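 also: cell lysates probed for reduced Tau pSer396 via ELISA (colorimetric) or western blot (chemiluminescence), both with one shared pSer396 antibody, EC50 for lowering phosphorylation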
Type: cell-based, human
Study conditions: Homo sapiens; SH-SY5Y cells, overnight (16-18 h); read-out: pSer396 Tau EC50
Quantity name: EC50 (µM)
Give the value in µM but do not write µM after it.

*Q* Checklist item: EC50 tested on Tau phosphorylation at Ser396 (pSer396), SH-SY5Y cells, entry Cc1ncc(-c2ccc3cnc(NC(=O)N4CCC(N(C)CC(F)F)CC4)cc3c2)o1 , value?
*A* 1.1

*Q* Checklist item: EC50 tested on Tau phosphorylation at Ser396 (pSer396), SH-SY5Y cells, entry Cc1cn2c(n1)CN(C(=O)Nc1cc3cc(-c4cnc(C)o4)ccc3cn1)CC2 , value?
*A* 0.035

*Q* Checklist item: EC50 tested on Tau phosphorylation at Ser396 (pSer396), SH-SY5Y cells, entry COCCN[C@H]1CC[C@H](C(=O)Nc2cc3cc(-c4cnn(C)c4)cc(F)c3cn2)CC1 , value?
*A* 2.2

*Q* Checklist item: EC50 tested on Tau phosphorylation at Ser396 (pSer396), SH-SY5Y cells, entry Cc1nnc(-c2ccc3cnc(NC(=O)N4CC[C@H](N(C)C)[C@@H](F)C4)cc3c2)s1 , value?
*A* 0.456

*Q* Checklist item: EC50 tested on Tau phosphorylation at Ser396 (pSer396), SH-SY5Y cells, entry Cc1ncc(-c2ccc3cnc(NC(=O)[C@H]4CC[C@H](NCCF)CC4)cc3c2)o1 , value?
*A* 0.384

*Q* Checklist item: EC50 tested on Tau phosphorylation at Ser396 (pSer396), SH-SY5Y cells, entry Cc1ncc(-c2cc(F)c3cnc(NC(=O)[C@H]4CC[C@H](C(=O)N5CCN(C)CC5)CC4)cc3c2)o1 , value?
*A* 5.4

*Q* Checklist item: EC50 tested on Tau phosphorylation at Ser396 (pSer396), SH-SY5Y cells, entry [2H]c1c([2H])c(C([2H])([2H])[2H])c([2H])c([2H])c1C(=O)Nc1cc2cc(-c3cncn3C)ccc2cn1 , value?
*A* 3.04

*Q* Checklist item: EC50 tested on Tau phosphorylation at Ser396 (pSer396), SH-SY5Y cells, entry Cc1nnc(-c2ccc3cnc(NC(=O)N4CCC(N5CCN(C)CC5)CC4)cc3c2)s1 , value?
*A* 0.656

*Q* Checklist item: EC50 tested on Tau phosphorylation at Ser396 (pSer396), SH-SY5Y cells, entry Cc1nnc(-c2ccc3cnc(NC(=O)N4CCOCC4)cc3c2)s1 , value?
*A* 0.843

*Q* Checklist item: EC50 tested on Tau phosphorylation at Ser396 (pSer396), SH-SY5Y cells, entry Cc1ncc(-c2ccc3cnc(NC(=O)[C@H]4CC[C@H](N(C)C5COC5)CC4)cc3c2)o1 , value?
*A* 0.497

*Q* Checklist item: EC50 tested on Tau phosphorylation at Ser396 (pSer396), SH-SY5Y cells, entry Cc1ncc(-c2ccc3cnc(NC(=O)[C@H]4CC[C@H](N(C)CC(F)F)CC4)cc3c2)o1 , value?
*A* 0.445

*Q* Checklist item: EC50 tested on Tau phosphorylation at Ser396 (pSer396), SH-SY5Y cells, entry Cn1cc(-c2cc(F)c3cnc(NC(=O)[C@H]4CC[C@H](N(C)C)CC4)cc3c2)nn1 , value?
*A* 0.119

*Q* Checklist item: EC50 tested on Tau phosphorylation at Ser396 (pSer396), SH-SY5Y cells, entry Cc1ncc(-c2ccc3cnc(NC(=O)[C@H]4CC[C@H](NC(CF)CF)CC4)cc3c2)o1 , value?
*A* 0.612

*Q* Checklist item: EC50 tested on Tau phosphorylation at Ser396 (pSer396), SH-SY5Y cells, entry Cc1nnc(-c2ccc3cnc(NC(=O)[C@H]4CC[C@H](N5CCN(C)CC5)CC4)cc3c2)s1 , value?
*A* 0.218

*Q* Checklist item: EC50 tested on Tau phosphorylation at Ser396 (pSer396), SH-SY5Y cells, entry Cc1nnc(-c2ccc3cnc(NC(=O)C4CCN(C)CC4)cc3c2)s1 , value?
*A* 0.091

*Q* Checklist item: EC50 tested on Tau phosphorylation at Ser396 (pSer396), SH-SY5Y cells, entry Cc1nnc(-c2ccc3cnc(NC(=O)N4CCC(NCCF)CC4)cc3c2)s1 , value?
*A* 0.615

*Q* Checklist item: EC50 tested on Tau phosphorylation at Ser396 (pSer396), SH-SY5Y cells, entry Cn1cc(-c2cc(F)c3cnc(NC(=O)[C@H]4CC[C@H](N(C)C)CC4)cc3c2)cn1 , value?
*A* 0.368

*Q* Checklist item: EC50 tested on Tau phosphorylation at Ser396 (pSer396), SH-SY5Y cells, entry CC(C)C[N+]1(CC(C)C)CCC(C(=O)Nc2cc3cc(-c4cnn(C)c4)ccc3cn2)CC1 , value?
*A* 9.91

*Q* Checklist item: EC50 tested on Tau phosphorylation at Ser396 (pSer396), SH-SY5Y cells, entry Cc1nc(-c2ccc3cnc(NC(=O)[C@H]4CC[C@H](N5CCN(C)CC5)CC4)cc3c2)co1 , value?
*A* 0.436

*Q* Checklist item: EC50 tested on Tau phosphorylation at Ser396 (pSer396), SH-SY5Y cells, entry Cn1cc(-c2cc(F)c3cnc(NC(=O)[C@H]4CC[C@@H](N5CCOCC5)CC4)cc3c2)cn1 , value?
*A* 0.184

*Q* Checklist item: EC50 tested on Tau phosphorylation at Ser396 (pSer396), SH-SY5Y cells, entry Cc1nnc(-c2ccc3cnc(NC(=O)C4(F)CCN(C)CC4)cc3c2)s1 , value?
*A* 0.167

*Q* Checklist item: EC50 tested on Tau phosphorylation at Ser396 (pSer396), SH-SY5Y cells, entry [2H]C1([2H])OC([2H])([2H])C([2H])([2H])N(C(=O)Nc2cc3cc(-c4cnc(C)n4C)ccc3cn2)C1([2H])[2H] , value?
*A* 7.2

*Q* Checklist item: EC50 tested on Tau phosphorylation at Ser396 (pSer396), SH-SY5Y cells, entry Cc1ncc(-c2ccc3cnc(NC(=O)[C@H]4CC[C@H](CO)CC4)cc3c2)o1 , value?
*A* 0.362

*Q* Checklist item: EC50 tested on Tau phosphorylation at Ser396 (pSer396), SH-SY5Y cells, entry [2H]c1c([2H])c([2H])c(C(=O)Nc2cc3cc(-c4cncn4C)ccc3cn2)c(Cl)c1[2H] , value?
*A* 5.9

Data origin, for the record: patent US10604514B2
